tested on: UACC-257 melanoma; assay: NCI tumour cell line growth inhibition, 48 h
Can you tell me TGI for the items I'm about to list?
Give bare numbers, in µM.

Smiles Record	Reported Endpoint	Observed Value
O=C(NNC(=S)NC(=O)c1ccccc1)c1ccc(OCc2nc3ccc(Cl)cc3[nH]2)cc1	TGI	10.5

With those in mind, consider the next molecule.
Item under review: Cn1cc(-c2cc(N)n3nc(-c4c[nH]c5ccccc45)cc3n2)c2cccnc21 . Reported TGI?
33.5

---

system: MDA-MB-468 breast; experiment: NCI tumour cell line growth inhibition, 48 h; in the data active = GI50 below about 0.43 µM; inactive = the rest
The categories you may choose from are active, inactive

Worked examples, 8 molecules total:
Molecule	Tested Target	Class Name
Clc1cc2c(c(CSc3nc4ccccc4n4cccc34)c1)OCOC2	MDA-MB-468 breast	inactive
O=C(NC[C@H](O)CN1CCc2ccccc2C1)c1cc(NC2COC2)ncn1	MDA-MB-468 breast	inactive
Cc1nc(Nc2cccnc2)sc1C(=O)/C=C/c1ccc(F)cc1	MDA-MB-468 breast	inactive
CCOC(=O)Nc1cc2c(c(N)n1)N=C(c1ccccc1)CO2	MDA-MB-468 breast	active
CC(NCCC(c1ccccc1)c1ccccc1)c1ccccc1 (stereo unspecified)	MDA-MB-468 breast	inactive
O=C(Nc1ccc(Br)cc1F)c1cc(Cl)ccc1O	MDA-MB-468 breast	inactive
Cn1cc(-c2cc(N)n3nc(-c4c[nH]c5ccccc45)cc3n2)c2cccnc21	MDA-MB-468 breast	inactive
NC(=O)c1c(NC(=O)c2ccccc2)sc2c1CCC(=O)C2	MDA-MB-468 breast	inactive

GET /call?item= CCc1cc(OC(=O)N2CCC(N3CCCCC3)CC2)ccc1Nc1cc(-c2ccc(-n3cccn3)cc2)[nH]n1 returns the recorded outcome of this test.
inactive

Test call for this molecule, please: CC(C)(/C=C(\C#N)C(=O)N1CCC[C@@H](n2nc(-c3ccc(Oc4ccccc4)cc3F)c3c(N)ncnc32)C1)N1CCN(C2COC2)CC1
inactive

Called result for COc1ccc(-c2nnc3n(C)c(=O)c4ccccc4n23)cc1N
inactive

src = PubChem BioAssay (NCI)
